This section presents molecules with their documented IC50 values.
# target.under.test: full-length RORγt in Jurkat cells (Homo sapiens, UniProt P51449)
# Construct: transcriptional activity of the full-length RORγt in Jurkat cells; host or cells: Jurkat cells (ATCC TIB-152)
# Sequence (P51449 1-497 isoform P51449-2): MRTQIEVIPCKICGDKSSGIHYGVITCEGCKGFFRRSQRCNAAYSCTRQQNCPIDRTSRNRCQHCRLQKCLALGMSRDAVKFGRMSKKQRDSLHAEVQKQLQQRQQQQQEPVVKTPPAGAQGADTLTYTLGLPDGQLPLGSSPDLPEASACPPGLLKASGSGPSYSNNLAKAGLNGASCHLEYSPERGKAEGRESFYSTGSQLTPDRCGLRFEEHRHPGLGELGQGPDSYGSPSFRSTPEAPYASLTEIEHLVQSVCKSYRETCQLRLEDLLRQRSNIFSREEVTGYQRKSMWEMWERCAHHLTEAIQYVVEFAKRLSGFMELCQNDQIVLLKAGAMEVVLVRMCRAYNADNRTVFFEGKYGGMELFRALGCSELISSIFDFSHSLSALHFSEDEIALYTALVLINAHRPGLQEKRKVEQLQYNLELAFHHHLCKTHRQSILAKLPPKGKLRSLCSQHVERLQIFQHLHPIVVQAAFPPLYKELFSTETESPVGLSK
# procedure.summary: RORγt 5×RORE Assay in Jurkat Cells (Assay 2)
# Type: cell-based
# assay.context: 5×RORE luciferase reporter, Table 20, read-out: Avg ROR γt/5x IC5
property: IC50

INSERT INTO measurements (molecule, reading) VALUES
  ('CC[C@@H]1CN(c2ncc(C(F)(F)F)cc2C)Cc2cc(C(=O)NCc3ccc(S(=O)(=O)CC)cc3)ccc21 (single isomer, unassigned)', '< 100 nM'),
  ('CC[C@@H]1CN(c2ncc(C3CC3)cn2)Cc2cc(C(=O)N[C@@H](CO)c3ccc(S(=O)(=O)CC)cc3)ccc21 (single isomer, unassigned)', '100 to 1000 nM'),
  ('CCC1CN(c2ncc(C(F)(F)F)cn2)Cc2cc(C(=O)N[C@@H](CO)c3ccc(S(=O)(=O)CC)cc3)ccc21 (single isomer, unassigned) [Hy7-17.2]', '> 1000 nM'),
  ('CC[C@@H]1CN(c2ncc(C(F)(F)F)cc2C)Cc2cc(C(=O)N[C@@H](CO)c3ccc(S(=O)(=O)CC)cc3)ccc21 (single isomer, unassigned)', '< 100 nM'),
  ('CC[C@@H]1CN(c2ncc(Cl)cn2)Cc2cc(C(=O)N[C@@H](CO)c3ccc(S(=O)(=O)CC)cc3)ccc21 (single isomer, unassigned)', '> 1000 nM'),
  ('CC[C@@H]1CN(c2ccc(C(F)(F)F)cc2)C(=O)c2cc(C(=O)NCc3ccc(S(=O)(=O)CC)cc3)ccc21 (single isomer, unassigned)', '100 to 1000 nM'),
  ('CCC1CN(C2CCC(C(F)(F)F)CC2)Cc2cc(C(=O)NC(CO)c3ccc(S(=O)(=O)CC)cc3)ccc21 (single isomer, unassigned) [Hy7-35.2]', '> 1000 nM'),
  ('CCS(=O)(=O)c1ccc(CNC(=O)c2ccc3c(c2)CN(c2ncc(F)cn2)C[C@@H]3C(C)C)cc1 (single isomer, unassigned)', '> 1000 nM'),
  ('CCC1CN(C2CCC(C(F)(F)F)CC2)Cc2cc(C(=O)NC(CO)c3ccc(S(=O)(=O)CC)cc3)ccc21 (single isomer, unassigned) [Hy7-35.1]', '< 100 nM'),
  ('CC[C@@H]1CN(c2ncc(-c3ncco3)cn2)Cc2cc(C(=O)NCc3ccc(S(=O)(=O)CC)cc3)ccc21 (single isomer, unassigned)', '< 100 nM'),
  ('CCS(=O)(=O)c1ccc(CNC(=O)c2ccc3c(c2)CN(c2ncc(-c4ccc(=O)n(C)c4)cn2)C[C@H]3C(C)C)cc1 (single isomer, unassigned)', '< 100 nM');

// provenance: patent US11008340B2
